- Test system: T47D
- procedure-details: Cell viability (CellTiter-GLO), 4 days, ER-positive cells
- Assay type: cell-based
- test-conditions: Homo sapiens, 96 h
- Protocol: For cell viability, cells were seeded in 96-well plates at 1500-2500 cells per well (optimum density for growth, depending on the specific cell line) in a total volume of 100 μl media. […] After 4 days of incubation, Cell-Titer GLO reagents (Promega) were added and luminescence was measured on GLOMAX microplate luminometer (Promega), according to the manufacturer's instructions. […] The estimated in vitro IC50 values were calculated using GraphPad Prism 6 software.
readout-label: IC50

Note to self: IC50 recorded for O=C(Cc1ccccc1[N+](=O)[O-])Nc1ccc(-c2ccc(C(O)(C(F)(F)F)C(F)(F)F)cc2F)cc1 [XY018] was ~9 µM

* * *

- Tested on: MCF-7
- procedure-details: Cell viability (CellTiter-GLO), 4 days, ER-positive cells
- Type: cell-based
- test-conditions: Homo sapiens, MCF7, 96 h; ER-positive MCF-7, 4 days
readout-label: IC50

Note to self: IC50 recorded for "O=C(Cc1ccccc1[N+](=O)[O-])Nc1ccc(-c2ccc(C(O)(C(F)(F)F)C(F)(F)F)cc2F)cc1" was ~9 µM

* * *

- Test system: HCC1954
- procedure-details: Cell viability (CellTiter-GLO), 4 days, HER2-positive cells
- Assay type: cell-based
- test-conditions: Homo sapiens, 96 h; HER2-positive HCC1954, 4 days
readout-label: IC50 (nM)
Respond with the bare value in nM.

Note to self: IC50 recorded for "O=C(Cc1ccccc1[N+](=O)[O-])Nc1ccc(-c2ccc(C(O)(C(F)(F)F)C(F)(F)F)cc2F)cc1" was 1470

* * *

- Tested on: lung cancer cells (A427, Calu1, A549, H23, H358, H1666, HCC827, PC-9, H69, H209)
- procedure-details: Cell viability (CellTiter-GLO), 4 days, lung cancer cells
- Assay type: cell-based
- test-conditions: Homo sapiens, 96 h, NSCLC and SCLC lung cancer cells
readout-label: IC50

Note to self: IC50 recorded for O=C(Cc1ccccc1[N+](=O)[O-])Nc1ccc(-c2ccc(C(O)(C(F)(F)F)C(F)(F)F)cc2F)cc1 [XY018] was 3.3 to 9 µM
